Each recorded value in this set is attributed to PubChem BioAssay (EPA / NIEHS).

Assay: CEETOX_H295R_OHPREG: CeeTox H295R High-throughput Steroidogenesis Assay for OH-Pregnenolone (OHPREG) (AID 2283434)
Settings: actives raise or lower the signal
Method: CEETOX_H295R is a cell-based, multiplexed-readout assay that uses H295R, a human adrenal gland cell line, with measurements taken at 48 hours after chemical dosing in a 96-well plate.CEETOX_H295R_OHPREG is one of 23 assay component(s) measured or calculated from the CEETOX_H295R assay. […] This assay endpoint, CEETOX_H295R_OHPREG, was analyzed with bidirectional fitting relative to DMSO as the negative control and baseline of activity. […]
Calls of active or inactive are those of the source. How the source made its calls: active means hit-call score of the fitted dose curve at least 0.9, where 1 is the maximum; inactive means score below 0.9.
parameter: outcome

CCC(C)c1cc([N+](=O)[O-])cc([N+](=O)[O-])c1OC(=O)OC(C)C (stereo not drawn) | inactive
CC(C)(C)CC(C)(C)c1ccc(OCCOCC[N+](C)(C)Cc2ccccc2)cc1 | inactive
CCCCCCCCN1CCCC1=O | inactive

----------
assay: ATG_NF_kB_CIS: Attagene CIS-FACTORIAL HepG2 Assay for human Nuclear Factor Kappa B (NF-kB) (AID 2282991); conditions: HepG2 Attagene cis-factorial NF-kB reporter mRNA; actives raise or lower the signal
Calls of active or inactive are those of the source. How the source made its calls: active means hit-call score of the fitted dose curve at least 0.9, where 1 is the maximum; inactive means score below 0.9.
parameter: outcome

OCC(O)c1ccccc1 (stereo unspecified) | inactive
O=C(O)c1cccnc1C(=O)O | inactive
Cc1c(OCC(F)(F)F)ccnc1CS(=O)c1nc2ccccc2[nH]1 (stereo unspecified) | inactive
COc1ccc(CCO)cc1 | inactive
CS(=O)(=O)c1ccc(C2=C(c3ccccc3)C(=O)OC2)cc1 | inactive

Would you kindly look at the next entry?
IN: Bench note: what outcome did COC(=O)c1ccc(C)cc1C1=NC(C)(C(C)C)C(=O)N1 (stereo unspecified) (tested in a mixture with another compound) show?
OUT: inactive

----------
experiment: ATG_VDRE_CIS: Attagene CIS-FACTORIAL HepG2 Assay for human Vitamin D Receptor Element (VDRE) (AID 2282968); conditions: HepG2 VDRE cis-reporter transcription, actives raise or lower the signal
Activity calls are given as the source filed them. How the source made its calls: active means hit-call score of the fitted dose curve at least 0.9, where 1 is the maximum; inactive means score below 0.9.
Answer with one of the outcomes active, inactive

Some solved entries appear below for comparison.
O=P(O)(O)O | inactive
c1ccc(CN(Cc2ccccc2)Cc2ccccc2)cc1 | inactive
O=C(Nc1ccc2c(c1)Cc1ccccc1-2)C(F)(F)F | active

IN: Record lookup: outcome of this test for CCCCCCCCCCCC(=O)OCC(O)CO (configuration not stated) ?
OUT: inactive

IN: Short answer needed: outcome of this test for CC1CC(O)CC(C)(C)C1 (configuration not stated) ?
OUT: inactive

IN: Name the outcome recorded for C=CC(C)C#N (configuration not stated) in the assay.
OUT: inactive

IN: Can you look up the reported call for C=COCCOCCOC=C for me?
OUT: inactive

----------
Molecular target: Cellular tumor antigen p53 (Homo sapiens) (UniProt P04637)
Sequence (P04637 whole entry, looked up): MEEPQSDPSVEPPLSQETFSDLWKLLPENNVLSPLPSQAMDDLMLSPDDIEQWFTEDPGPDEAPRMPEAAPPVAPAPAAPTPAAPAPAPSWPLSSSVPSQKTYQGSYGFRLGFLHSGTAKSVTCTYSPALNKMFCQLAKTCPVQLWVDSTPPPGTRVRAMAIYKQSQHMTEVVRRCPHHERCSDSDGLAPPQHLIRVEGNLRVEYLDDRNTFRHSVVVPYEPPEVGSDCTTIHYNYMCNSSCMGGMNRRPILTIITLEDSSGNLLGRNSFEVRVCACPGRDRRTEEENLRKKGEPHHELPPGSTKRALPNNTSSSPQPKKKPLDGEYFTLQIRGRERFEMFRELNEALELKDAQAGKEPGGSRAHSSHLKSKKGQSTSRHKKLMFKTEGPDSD
Test: TOX21_p53_BLA_p3_ratio: Tox21 HCT-116 p53 Agonism Beta-lactamase Assay, Ratio, Phase 3 (AID 2283596)
Protocol: TOX21_p53_BLA_p3 is a cell-based, single-readout assay that uses HCT116, a human intestinal cell line, […] in a 1536-well plate.TOX21_p53_BLA_p3_ratio is an assay readout measuring reporter gene via receptor activity and designed using inducible reporter (beta lactamase induction) detected with GAL4 b-lactamase reporter gene. […] This assay endpoint, TOX21_p53_BLA_p3_ratio, was analyzed in the positive analysis fitting direction relative to DMSO as the negative control and baseline of activity. […]
Inconclusive results are not listed. Calls of active or inactive are those of the source. The calls were made as follows: active = hit-call score of the fitted dose curve at least 0.9, where 1 is the maximum; inconclusive = response in the unintended direction; inactive = score below 0.9.
Parameter call: string, one of active, inactive

CC(C)c1ccccc1O | inactive
COC(=O)C=C(C)CCC=C(C)C | inactive
CCCCN(CCCC)C(=O)N(CCCC)CCCC | inactive
OCCCCC(O)CO (stereo not drawn) | inactive
CCc1ccc(O)cc1 | inactive
O=C(Nc1ccc2c(c1)Cc1ccccc1-2)C(F)(F)F | inactive
CC1(C)O[C@@H]2C[C@H]3[C@@H]4CCC5=CC(=O)C=C[C@]5(C)[C@@]4(F)[C@@H](O)C[C@]3(C)[C@]2(C(=O)CO)O1 | inactive
CC(C)CC(C)CC(O)CC(C)C (stereo not drawn) | inactive
CSCCC=O | inactive
c1ccc(Oc2ccccc2)cc1 | inactive

IN: Outcome logged for Cc1cc(S(=O)(=O)O)ccc1N=Nc1c(O)ccc2ccccc12 in this assay:
OUT: inactive

IN: Outcome logged for O=C(CS)OCCOC(=O)CS in this assay:
OUT: active

IN: Record lookup: outcome of this test for Cc1c(OCC(F)(F)F)ccnc1CS(=O)c1nc2ccccc2[nH]1 (stereo not drawn) ?
OUT: inactive

IN: Could you please tell me the result logged for CC1=NN(c2ccc(S(=O)(=O)O)cc2)C(=O)C1 in this assay?
OUT: inactive

IN: How did this test come out for COC(=O)c1cccnc1 ?
OUT: inactive

----------
assay: BSK_4H_SRB: Viability Assessment in the BioMAP Diversity Plus: 4H Assay (AID 2283027); details: primary human endothelial cells (HUVEC);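 further: cells exposed to compound for 24 h before staining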;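 on AC50: curves fitted both ways versus DMSO so AC50 may be loss or gain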
Calls of active or inactive are those of the source. The calls were made as follows: active = hit-call score of the fitted dose curve at least 0.9, where 1 is the maximum; inactive = score below 0.9.
parameter: AC50

O=C1c2ccccc2C(=O)c2c(O)ccc(O)c21 | inactive
CN(C)C(=O)Nc1ccc(Oc2ccc(Cl)cc2)cc1 | inactive
CCCCN(CCCC)C(=O)N(CCCC)CCCC | 8.59 µM (active)
COc1ccc(CCN2CCC(Nc3nc4ccccc4n3Cc3ccc(F)cc3)CC2)cc1 | 2.49 µM (active)
O=C1OC[C@H](Cc2cccc(O)c2)[C@H]1Cc1cccc(O)c1 | inactive
CN(C)C(=S)SC(=S)N(C)C | 19.9 µM (active)
CCN(CC)C(=O)N(CC)CC | inactive
CC(C=O)Cc1ccc(C(C)(C)C)cc1 (stereo not drawn) | 30.1 µM (active)

Would you mind listing AC50 for each of the following compounds?
1. CCOC(=O)C(C#N)=C(c1ccccc1)c1ccccc1
2. CN(c1nccc(=O)[nH]1)C1CCN(c2nc3ccccc3n2Cc2ccc(F)cc2)CC1
3. CCC(C)c1cc([N+](=O)[O-])cc([N+](=O)[O-])c1OC(=O)OC(C)C (stereo not drawn)
4. Cc1cc(CCC(=O)OCCOCCOCCOC(=O)CCc2cc(C)c(O)c(C(C)(C)C)c2)cc(C(C)(C)C)c1O
5. CC1(C)C2=CCCC(C)(C)[C@]23CC[C@H]1C3
6. C=C(C)C(=O)OCCOCCOCCOC(=O)C(=C)C

OUT:
1: inactive; 2: inactive; 3: 13.9 µM (active); 4: inactive; 5: inactive; 6: inactive

List AC50 for every entry below, keeping the order given.
1. CC(C)(N=C=O)c1cccc(C(C)(C)N=C=O)c1
2. COc1cc(Cl)c(OC)cc1N
3. IC(I)I
4. c1ccc(Oc2ccccc2)cc1

OUT:
["inactive", "inactive", "inactive", "31.3 µM (active)"]

----------
molecular target: Heat shock factor protein 1 (Homo sapiens) (UniProt Q00613); test: ATG_HSE_CIS: Attagene CIS-FACTORIAL HepG2 Assay for human Heat Shock Transcription Factor 1 (HSE) (AID 2282953); conditions: HepG2 HSE cis-reporter, Attagene RNA transcription; actives raise or lower the signal
Sequence (Q00613 whole entry, looked up): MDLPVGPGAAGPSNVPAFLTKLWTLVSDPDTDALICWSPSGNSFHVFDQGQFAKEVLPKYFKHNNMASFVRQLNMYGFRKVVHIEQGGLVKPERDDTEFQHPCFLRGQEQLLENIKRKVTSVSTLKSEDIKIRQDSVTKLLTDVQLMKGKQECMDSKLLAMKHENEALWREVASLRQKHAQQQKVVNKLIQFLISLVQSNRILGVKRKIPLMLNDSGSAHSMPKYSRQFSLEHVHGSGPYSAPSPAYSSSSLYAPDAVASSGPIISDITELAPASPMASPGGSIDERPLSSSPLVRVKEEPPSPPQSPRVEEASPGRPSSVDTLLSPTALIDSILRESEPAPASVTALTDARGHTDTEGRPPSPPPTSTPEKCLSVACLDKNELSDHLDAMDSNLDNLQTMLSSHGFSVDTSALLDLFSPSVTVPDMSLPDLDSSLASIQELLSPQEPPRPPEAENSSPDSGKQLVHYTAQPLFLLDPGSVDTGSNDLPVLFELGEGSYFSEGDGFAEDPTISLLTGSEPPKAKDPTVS
Activity calls are given as the source filed them. The calls were made as follows: active = hit-call score of the fitted dose curve at least 0.9, where 1 is the maximum; inactive = score below 0.9.
parameter: outcome

COc1cc(C(C)C)ccc1C | inactive
C=CCCCCCCCCCC | inactive
Cc1ncc([N+](=O)[O-])n1CCO | inactive
CCCCCCCCCCCCCC(=O)OCC(O)CO (stereo not given) | inactive

Next molecule, please.
IN: Would you mind telling me what outcome value was observed for C=CC(C)C#N (stereo not given) ?
OUT: inactive

----------
test: ATG_Oct_MLP_CIS: Attagene CIS-FACTORIAL HepG2 Assay for human Octamer-Binding Transcription Factor (Oct) (AID 2282993); conditions: HepG2 Attagene cis-factorial Oct reporter, mRNA; actives raise or lower the signal
Calls of active or inactive are those of the source. How the source made its calls: active means hit-call score of the fitted dose curve at least 0.9, where 1 is the maximum; inactive means score below 0.9.
Assign a class; possible classes are true (1) for active, false (0) for inactive

Cc1ncc[nH]1 | false (0)
CC(C)(C)OC(=O)c1ccc(O)cc1 | true (1)
COC(=O)c1ccc([N+](=O)[O-])cc1 | false (0)

IN: Hi team, can someone confirm the assay call for CC(=O)CC(=O)Nc1ccc(C)cc1C ?
OUT: false (0)

IN: Would you mind telling me which call this test gave IC(I)I ?
OUT: false (0)

----------
read-out: Actin alpha 1 (ACTA1), ACTA1 (gene 58); assay: BSK_MyoF_ACTA1: BioMAP Diversity Plus: MyoF Assay for Actin alpha 1 (ACTA1) Biomarker Activity (AID 2284244); details: primary human lung fibroblasts
Calls of active or inactive are those of the source. Rule for the calls: active = hit-call score of the fitted dose curve at least 0.9, where 1 is the maximum; inactive = score below 0.9.
// classify into active, inactive

CS(=O)(=O)c1ccc(C2=C(c3ccccc3)C(=O)OC2)cc1 | inactive

IN: What was the test verdict on CSCCC=O ?
OUT: inactive

IN: Record lookup: outcome of this test for CC=Cc1ccc(OCC)c(O)c1 ?
OUT: inactive

IN: Record request — test call for CCCCCCCCCCCCCCCC(=O)OC/C=C(C)/C=C/C=C(C)/C=C/C1=C(C)CCCC1(C)C
OUT: inactive

IN: Lab log entry: COc1cc(Cl)c(OC)cc1N — outcome as called in the assay?
OUT: inactive

IN: Please indicate how the test categorized CC(=O)Nc1ccc(C(=O)CCl)cc1 .
OUT: active

IN: Query: recorded result category for CC(=O)C1(C)CC2=C(CCCC2(C)C)CC1C (stereo not given) in this test
OUT: active

IN: How did this test come out for O=C1c2ccccc2C(=O)c2c(O)ccc(O)c21 ?
OUT: inactive

IN: # fetch the recorded call for CCCCN(CCCC)C(=O)N(CCCC)CCCC here
OUT: active

IN: I'd appreciate the recorded outcome for CCN(CC)C(=O)N(CC)CC from this test.
OUT: inactive
